- TEST PROTOCOL: yeast display, Sf9 membrane polyspecificity reagent, FACS + sequencing; frameworks hold sequencing errors

| RESIDUE STRING | polyreactivity (PSR sort gate) |
| --- | --- |
| QVQHVESGGGLVQAGGSLRLSCAASGFTSSRNAMGWSRQAPGKERELVATISSGGDTYYADSVKGRFTISRDNAKNSVYLQMNSLKPEYTAVYYCNKDTLYAWGYDYWGQGTQVTVSS | low polyreactivity |
| QVQLVESGGGLVQAGGSLRLICAPSGRIFEGYAMGWYRPATRKERELVAAISRGGGSTYYADSVKGRFTISRDNAKNTVYLQMNSLIPEDTAVYYCAKVPLTYSRSGYEYDYWGQGTQVSVSS | low polyreactivity |
| QVQLVESGGGLVQAGGSLRLSCAASGGTFYSYAMGWYRQAPGKERELVAAISRRGGSTYYADSVKGRFTISRDNAKNTVYLQMNSLKPEDTAVYYCNTYIYQVRDDYWGQGTQVTVSS | high polyreactivity |
| QVQLVESGGGLVQAGGSLRLICAASGRIWVNAMGWYIQAPGKQREFVAAISTSSASTYYADSVKGRFTISRDNAKNTVYLQMNSLKPEDTAVYYCAARYLGKKYYYWGQGTQVTVSS | high polyreactivity |
| QVQLVESGGGLVQAGGSLRLSCAASGITLYRYVMGWYRQAPGKERELVADISGRGTSTYYADSVKGRFTISRDNAKNTVYLQMNSLKPEDTAVYYCNAEYTKTGAQREQSFLTRRGPGYDYWGQVTQVTVSS | low polyreactivity |
| QVQLVESGGGLVQAGGSLRLSCAASGLIFRPYAMGWYRQAPGKEREFVAAITWSTGSTYYADSVKGRFTISRDYAKNTVYLQMNSLKPEDTAVYYCAARYTVWRRDYNYWGQGTQVTVSS | high polyreactivity |
| QVQLVESGGGLVQAGGSLRLSCAASGSIFYDYEMGWYRQAPGKERELVASINTGGSTNYADSVKGRFTISRDNAKNTVYLKMNSLKPEDTAVYYCNAPRGYPTSANHLDYWGQGTQVTVSS | low polyreactivity |
| QVQLVESGGGLVQAGGSLRLSCAASGFIFWLYAMGWYRKAPVKESELVAAISWSDGSTYYADSVKGRFTISRDNAKNSVYLQMNCLKREDTAVYYCNTVRVHGFPIDRIYDYWGQGTQVTVSS | high polyreactivity |
| QVQLVESGGGLVQAGGSLRLSCAASGSIFDYYVMGWYRQSPGKERELVAAISLSGGSTYYADSVKGRFTISRDNAKNTVYLQMNSLKPEDTAVYYCNADSQWYDYDYWGQGTQVTVSS | high polyreactivity |
| QVQLVESGGGLVQAGGSLRLSCAASGSTFLANTMGWYRQAPGKEREFVAAITRRGGSTYYADSVKGRFTISRDNAKNTVYLQMNSLKPEDTAVYYCNAEWDFQYPYDYWGQGTQVTVSS | low polyreactivity |
| QVHLVESGAGLDQAGGSLSLSCAASGRNFSFNAMGSYRQAPGKVRELVASIRSGGSTNYADSVKGRFTISSDNAKNTVYLQMNSLKPEDTAVYYCAKRSTYWGWSSYGMDHWGQGTQVTVSS | high polyreactivity |

* * *

- TEST PROTOCOL: yeast display, Sf9 membrane polyspecificity reagent, FACS + sequencing; frameworks hold sequencing errors
PROPERTY: polyreactivity (PSR sort gate)

| RESIDUE STRING | PROPERTY | VALUE REPORTED |
| --- | --- | --- |
| QVQLVESGGGLVQAGGSLRLSCAASGNTFTFYAMGWYRQAPGKERELVASITGRGGSTYYADSVKGRFTISRDNAKNTVYLQMNSLKPEDTAVYYCNADYNSYRYRPPTTRDYWGQGTQVTVSS | polyreactivity (PSR sort gate) | low polyreactivity |
| QVQLVESGGGLVQAGGSLRLSFAASGSTFTYNDMGWYRQAPGKERELVARITFSSGRTYYADSVKGRFTISRDNAKNTVYLQMNSLKPEDTAVYYCARQWYWRPGYYIGQGYEYWGQGTQVTVSS | polyreactivity (PSR sort gate) | low polyreactivity |
